Biological target: SIK1 kinase (aa1-303, Thermo Fisher) (Homo sapiens)
Construct: SIK1 kinase (aa1-303, Thermo Fisher); purchased Thermo Fisher
Sequence (P57059 1-303): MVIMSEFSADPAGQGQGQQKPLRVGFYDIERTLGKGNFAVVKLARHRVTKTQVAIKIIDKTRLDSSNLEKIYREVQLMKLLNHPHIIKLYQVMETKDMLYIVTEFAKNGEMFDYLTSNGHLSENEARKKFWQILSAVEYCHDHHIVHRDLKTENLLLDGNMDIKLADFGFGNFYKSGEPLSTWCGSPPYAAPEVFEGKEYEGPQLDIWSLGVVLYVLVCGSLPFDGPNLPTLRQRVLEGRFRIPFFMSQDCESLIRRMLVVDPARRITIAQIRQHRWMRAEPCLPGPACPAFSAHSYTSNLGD
Experiment: Biochemical activities determination for SIK1 protein (TR-FRET)
Conditions: 110 uM ATP, 0.5 μM STK1 substrate
observed.property: IC50

Need IC50 of `CN1CC[C@@H]1COc1cc(-c2coc3cc(OCCN4CCCC4)ccc23)cc(OC(F)F)c1C(=O)NC1CC1` , thanks.
> 10000 nM

Need IC50 of COc1cc(-c2coc3cc(OCCN4CCCC4)ccc23)cc(OC(F)F)c1C(=O)NC1CC1N (racemic) , thanks.
> 10000 nM

Need IC50 of `COc1cc(-c2coc3cc(-c4cn(C)nc4Cl)ccc23)cc2c1C(=O)N(CC(F)(F)F)CC2` , thanks.
> 10000 nM

Need IC50 of `CN1CC[C@@H](Oc2cc(-c3coc4cc(OCCN5CCCC5)ccc34)cc(OC(F)F)c2C(=O)NC2CC2)C1` , thanks.
> 10000 nM

Need IC50 of `O=C(NC1CC1)c1c(OC(F)F)cc(-c2coc3cc(OCCN4CCCC4)ccc23)cc1OC1CC1` , thanks.
> 10000 nM

Need IC50 of COc1cc(-c2coc3cc(OC(C)CN4CCCC4)ccc23)cc(OC(F)F)c1C(=O)N[C@@H]1C[C@@H]1F (stereo partly shown) , thanks.
8180 nM

Need IC50 of `COc1cc(-c2coc3cc(OCCN4CC[C@@H](OC)C4)ccc23)cc(OC(F)F)c1C(=O)N[C@@H]1C[C@@H]1F` , thanks.
2190 nM

Need IC50 of `Cc1ccc(-c2ccc3c(-c4cc5c(c(OC(F)F)c4)C(=O)N(CC(F)(F)F)CC5)coc3c2)nn1` , thanks.
> 10000 nM

Need IC50 of `COc1cc(-c2coc3cc(OCCN4CCC(C)(C)C4)ccc23)cc(OC(F)F)c1C(=O)N[C@@H]1C[C@@H]1F` , thanks.
2530 nM

Need IC50 of COc1cc(-c2coc3cc(OCCN4CCCC4)ccc23)cc(OC(F)F)c1C(=O)NC1CCCC1N (racemic) , thanks.
> 10000 nM

Need IC50 of `CN1CC[C@H]1COc1cc(-c2coc3cc(OCCN4CCCC4)ccc23)cc(OC(F)F)c1C(=O)NC1CC1` , thanks.
> 10000 nM

Need IC50 of `CN1CC[C@@H](COc2cc(-c3coc4cc(OCCN5CCCC5)ccc34)cc(OC(F)F)c2C(=O)NC2CC2)C1` , thanks.
> 10000 nM

Need IC50 of `CN1CC[C@H](COc2cc(-c3coc4cc(OCCN5CCCC5)ccc34)cc(OC(F)F)c2C(=O)NC2CC2)C1` , thanks.
> 10000 nM
